Values compiled from ChEMBL document CHEMBL3576830.

- System: Onchocerca volvulus
- run_description: Antionchocerciasis activity against L3 larval stage of Onchocerca volvulus assessed as inhibition of parasite molting at 10 uM treated for 24 hrs prior to complete medium and PBMC addition measured after 6 days by inverted microscopic analysis
- Assay type: functional
The source made the active and inactive calls. No cut-off for these calls is given here.
value_type: inhibition

1. Cc1nccc2c3ccc(OCc4ccc(Cl)cc4)cc3n(Cc3ccc(Cl)cc3)c12	inactive
2. COc1ccc2c(c1)[nH]c1c(C)[n+](CC3CC3)ccc12.[Br-]	Active
3. COc1ccc2c(c1)[nH]c1c(C)[n+](Cc3ccc(Cl)cc3)ccc12.[Br-]	Active
4. Cc1c2[nH]c3cc(OCc4ccc(Cl)cc4)ccc3c2cc[n+]1Cc1ccc(Cl)cc1.[Br-]	Active
5. Cc1nccc2c1[nH]c1ccccc12 [HARMAN]	inactive

Proceeding to the next compound to report its inhibition.
Just so you know, measured inhibition for c1ccc2c(c1)[nH]c1cnccc12 [NORHARMANE] came out at inactive

----------
- Tested on: Entamoeba histolytica
- run_description: Inhibition of Entamoeba histolytica chitinase using 4-methylumbelliferyl-N-N'-N''-beta-chitotrioside as substrate assessed as release of 4-methylumbelliferone at 10 uM measured for 10 mins by fluorescence assay
Activity calls are given as the source filed them. No cut-off for these calls is given here.
Response enum: active, inactive

Hi, do you know how "COc1ccc2c(c1)[nH]c1c(C)[n+](CC3CC3)ccc12.[Br-]" came out in this test? inactive

Hi, do you know how "COc1ccc2c(c1)[nH]c1c(C)nccc12" came out in this test? inactive

Hi, do you know how "Cc1c2[nH]c3cc(OCc4ccc(Cl)cc4)ccc3c2cc[n+]1Cc1ccc(Cl)cc1.[Br-]" came out in this test? active

Hi, do you know how "Cc1nccc2c3ccc(OCc4ccc(Cl)cc4)cc3n(Cc3ccc(Cl)cc3)c12" came out in this test? inactive

Hi, do you know how "Cc1[nH]ccc2c1[nH]c1cc(=O)ccc12" came out in this test? inactive
